# EXPERIMENT DESCRIPTION: chemical genetic growth profiling, strain panel (AID 1159580);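 also: tested at 20 µM; growth read once vehicle control cultures reached saturation at 30 °C; 1 = growth at the plate median or of vehicle wells; lower values mean less growth of the strain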
# CONDITION CONTEXT: S. cerevisiae deletion strains, growth OD, locus YDR150W, strain NUM1, stronger effect = lower value
Screen size: about 5,500 compounds; about 2,000 (36%) were called active. Roughly 18% stayed inconclusive and do not appear here. This is one part of the list.
PROPERTY LABEL: normalized growth
// return just the number, without any unit appended

Exercise: Form field: reported normalized growth of O=C(Oc1ccc(F)cc1)c1cccs1
Solution: 0.941

Exercise: Further, for CNC(=O)CSP(=S)(OC)OC ?
Solution: 1.01

Exercise: Further, for CN1CCN(C(c2ccccc2)c2ccccc2)CC1 ?
Solution: 0.989

Exercise: Further, for NC(=S)Nc1cc(Cl)ccc1Cl ?
Solution: 0.906

Exercise: Further, for COC(=O)c1ccccc1-n1cccc1C(=O)OC ?
Solution: 1.01

Exercise: Further, for C[C@]12CCC3c4ccc(O)cc4CCC3C1CC[C@@H]2OC(=O)CCC1CCCC1 (stereo partly specified) ?
Solution: 0.985

Exercise: Further, for CC(=O)OC1CCC2C3CCc4cc(O)ccc4C3CCC12C (stereo unspecified) ?
Solution: 1.01

Exercise: Further, for O=C(NCCNc1ccc(C(F)(F)F)cc1[N+](=O)[O-])c1cccs1 ?
Solution: 0.931

Exercise: Further, for CC(=O)NN(C)c1ccc(C(F)(F)F)cc1[N+](=O)[O-] ?
Solution: 0.991

Exercise: Further, for CCN(C(=S)Nc1ccc(OC)cc1)c1ccccc1 ?
Solution: 0.917

Exercise: Further, for Nc1ncnc2nc[nH]c12 ?
Solution: 1.02

Exercise: Further, for O=c1oc(Cl)c(Cl)c2ccccc12 ?
Solution: 0.991

Exercise: Further, for Cn1cnc2c(NC3CCCC3)ncnc21 ?
Solution: 0.999

Exercise: Further, for COP(=S)(OC)SCn1nnc2ccccc2c1=O ?
Solution: 0.971

Exercise: Further, for O=C(O)CCC/C=C\C[C@@H]1[C@@H](/C=C/[C@H](O)C2Cc3ccccc3C2)[C@@H](F)C[C@@H]1O ?
Solution: 1.01

Exercise: Further, for CCC(=O)O[C@H]1CCC2C3CCc4cc(O)ccc4C3CC[C@@]21C (stereo partly specified) ?
Solution: 1

Exercise: Further, for Cn1c(=O)[nH]c(=O)c2[nH]cnc21 ?
Solution: 0.994

Exercise: Further, for NNC(=S)Nc1cc(C(F)(F)F)ccc1Cl ?
Solution: 0.872

Exercise: Further, for CC1=CC(C)(C)NC(=S)N1 ?
Solution: 0.981

Exercise: Further, for Cc1ccc(S(=O)(=O)Oc2cc(=O)n(C)c3ccccc23)cc1 ?
Solution: 0.918

Exercise: Further, for O=[N+]([O-])c1cc(C(F)(F)F)ccc1NCCCn1ccnc1 ?
Solution: 1.04

Exercise: Further, for O=C(CSc1nnc(-c2ccco2)n1-c1ccc2c(c1)OCCO2)c1cccc(F)c1 ?
Solution: 1.01

Exercise: Further, for NNC(=S)Nc1ccc(C(F)(F)F)cc1 ?
Solution: 0.899

Exercise: Further, for Cc1ccc(S(=O)(=O)Oc2ccc(CC#N)cc2)cc1 ?
Solution: 0.995

Exercise: Further, for O=c1[nH]cnc2nc[nH]c12 ?
Solution: 1

Exercise: Further, for COc1ccc(-n2c(SCc3ccc(Br)cc3)nnc2-c2ccco2)cc1 ?
Solution: 0.962

Source: PubChem BioAssay AID1159580
